biological target: T1, Lassa NPc (C-terminal portion of NP encoding residues 341-569) (Lassa virus lineage IV, strain Josiah, UniProt P13699); test: SPR; ProteOn XPR36; […] (20 ug/mL in 10 mM sodium acetate pH 5.0); […]; settings: both partners purified
T1 construct: source: bought: Zalgen (recombinant)
T1 sequence (P13699 341-569): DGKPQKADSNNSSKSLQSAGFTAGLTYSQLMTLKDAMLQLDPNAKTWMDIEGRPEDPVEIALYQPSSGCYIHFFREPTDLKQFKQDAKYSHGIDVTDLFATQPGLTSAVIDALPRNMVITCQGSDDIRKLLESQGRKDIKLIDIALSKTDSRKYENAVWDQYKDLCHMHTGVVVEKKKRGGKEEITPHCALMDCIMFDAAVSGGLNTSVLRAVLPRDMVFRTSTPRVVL
measurementKind: binding result

Illustrative cases are given below, each with its answer.
binder: sdAb E11 (VHH, source: E. coli Tuner (DE3), periplasmic, purified (osmotic shock, IMAC, gel filtration)) VHH: EVQLQASGGGLAQPGGSLRLSCAASGFTLVYYGIGWFRQAPGKEREGVSCISSNDGTTYYADSVKGRFTISRDNAKNTVYLQMNSLKPEDTAVYYCATELGNTHRGSYFPKQRVERCHTGDFASWGQGTQVTVSS
binding result: no binding

binder: sdAb B5 (VHH, source: E. coli Tuner (DE3), periplasmic, purified (osmotic shock, IMAC, gel filtration)) VHH: EVQLQASGGGLAQPGGSLRLSCAASGFTLVYYGIGWFRQAPGKEREGVSCISSNDGSTYYADSVKGRFTISRDAAKNTVYLQMNSLKPEDTAVYYCATELGNTHRGSFFPNRRVERCRTDDFASWGQGTQVTVSS
binding result: no binding

binder: sdAb G11 (VHH, source: E. coli Tuner (DE3), periplasmic, purified (osmotic shock, IMAC, gel filtration)) VHH: DVQLQASGGGLVQAGDSLTLSCAASGRTVSPYGVGWFRQAPGREREFVAALSRSGTFTAYADSVKGRFTISRDNAKNTVYLQMNSLKPDDTAVYHCAARSASSYYSTYRKEDDYHYWGQGTQVTVSS
binding result: no binding

binder: sdAb E10 (VHH, source: E. coli Tuner (DE3), periplasmic, purified (osmotic shock, IMAC, gel filtration)) VHH: DVQLQASGGGLVQAGASLRLSCAASGFTYTMGWFRQAPGQEREFVAAIARSGGTTYYTDSVKGRFTISRDNAKKTVFLQLNSLKPEDTAVYYCAADALPYSAQSMSTRNPGYWGQGTQVTVSS
binding result: no binding

binder: sdAb F3 (VHH, source: E. coli Tuner (DE3), periplasmic, purified (osmotic shock, IMAC, gel filtration)) VHH: DVQLQASGGGLVQPGGSLRLSCAASGFTLVYYGIGWFRQAPGKEREGVSCISSYDGTTYYADSVKGRFTISRDNAKNTVYLQMNSLKPEDTAVYYCATELGNTHRGSYFPKQRVERCHTGDFASWGQGTQVTVSS
binding result: no binding

Please give binding result for each item listed below.
1. sdAb H6 (VHH, also called clone H6; Bt-H6; source: E. coli Tuner (DE3), periplasmic, purified (osmotic shock, IMAC, gel filtration)) VHH: DVQLQASGGGVVQPGGSLRLSCVASGFTLVYYGIGWFRQAPGKEREGVSCISSNDGSTYYADSVKGRFTISRDAAKNTVYLQMNSLKPEDTAVYYCATELGNTHRGSFFPNRRVKRCRTDDFASWGQGTQVTVSS
2. sdAb C7 (VHH, source: E. coli Tuner (DE3), periplasmic, purified (osmotic shock, IMAC, gel filtration)) VHH: EVQLQASGGGLVQPGGSLRLSCVASGFTLVYYGIGWFRQAPGKEREGVSCISSNDGSTYYADSVKGRFTISRDAAKNTMYLQMNSLKPEDTAVYYCATELGNTHRGSFFPNRRVERCRTDDFASWGQGTQVTVSS
3. sdAb E1 (VHH, also called clone E1; source: E. coli Tuner (DE3), periplasmic, purified (osmotic shock, IMAC, gel filtration)) VHH: DVQLQASGGGLVQTGGSLRLSCENSGRALRIMGWFRQAPGKEREFVATINRNGESTYYSDSVKGRFTISRDNNKNTVYLQMNNLKPEDTGVYNCAADRPGPTQIKTRADDYDYWGEGTQVTVSS

1. no binding
2. no binding
3. no binding
